Every entry's value here was drawn from patent US6479499B1.

Test system: breast cancer (MCF-7)
test.protocol: In vitro cytotoxicity, MCF-7
condition.parameters: Homo sapiens, MCF7, 96 h, read-out: ED50 MCF-7
result.type: IC50

Field: example entries. Status: answers known.
compound | IC50
COc1ccc(C2NC(=O)c3ccccc3N2)cc1OC (racemic) [Compound 66] | 20 µg/mL
COc1cccc(C2NC(=O)c3ccccc3N2)c1OC (racemic) [Compound 63] | > 20 µg/mL
COc1ccc(C2NC(=O)c3ccccc3N2)c(OC)c1 (racemic) [Compound 64] | > 20 µg/mL
COc1cccc(C2NC(=O)c3cc(Cl)ccc3N2)c1 (racemic) [Compound 68] | 16 µg/mL
COc1cc(OC)cc(C2NC(=O)c3ccccc3N2)c1 (racemic) [Compound 67] | > 20 µg/mL

Consider the following items and state reported IC50 for each.
1. COc1ccccc1C1NC(=O)c2ccccc2N1 (racemic) [Compound 60]
2. COc1ccc(OC)c(C2NC(=O)c3ccccc3N2)c1 (racemic) [Compound 65]
3. COc1ccc(C2NC(=O)c3ccccc3N2)cc1 (racemic) [Compound 62]
4. COc1cccc(C2NC(=O)c3ccccc3N2)c1 (racemic) [Compound 61]

**A:**
1. > 20 µg/mL
2. > 20 µg/mL
3. > 20 µg/mL
4. > 20 µg/mL

====

Assign IC50 to each entry below.
Test system: lung carcinoma (A-549)
test.protocol: In vitro cytotoxicity, A-549
condition.parameters: Homo sapiens, A549, 96 h, read-out: ED50 A-549

Worked cases, IC50 given:
molecule | endpoint.value
COc1cccc(C2NC(=O)c3ccccc3N2)c1OC (racemic) [Compound 63] | > 20 mg/L
COc1cccc(C2NC(=O)c3ccccc3N2)c1 (racemic) [Compound 61] | 3 mg/L
COc1ccc(C2NC(=O)c3ccccc3N2)cc1 (racemic) [Compound 62] | > 20 mg/L
COc1cccc(C2NC(=O)c3cc(Cl)ccc3N2)c1 (racemic) [Compound 68] | 0.6 mg/L
COc1ccc(OC)c(C2NC(=O)c3ccccc3N2)c1 (racemic) [Compound 65] | > 20 mg/L
COc1ccc(C2NC(=O)c3ccccc3N2)cc1OC (racemic) [Compound 66] | > 20 mg/L
COc1cc(OC)cc(C2NC(=O)c3ccccc3N2)c1 (racemic) [Compound 67] | 5 mg/L
COc1ccccc1C1NC(=O)c2ccccc2N1 (racemic) [Compound 60] | > 20 mg/L

Moving on to the next molecule.
**Q:** Hello, I am looking for reported IC50 with lung carcinoma (A-549) for COc1ccc(C2NC(=O)c3ccccc3N2)c(OC)c1 (racemic) [Compound 64] . Could you help?
**A:** > 20 mg/L

====

Tested on: melanoma (SKMEL-2)
test.protocol: In vitro cytotoxicity, SKMEL-2
condition.parameters: Homo sapiens, SK-MEL-2, read-out: Inhibition at highest test concentration (in brackets), SKMEL-2
Please note: True applies when inhibition at 20 µg/mL is 40% or greater, and False applies otherwise.

Please review the following examples before continuing.
molecule | category
COc1ccc(C2NC(=O)c3ccccc3N2)cc1OC (racemic) | False
COc1ccc(C2NC(=O)c3ccccc3N2)c(OC)c1 (racemic) | False
COc1ccc(C2NC(=O)c3ccccc3N2)cc1 (racemic) | False
COc1ccc(OC)c(C2NC(=O)c3ccccc3N2)c1 (racemic) | True

Next up:
**Q:** Check if inhibition at 20 µg/mL >= 40% (inclusive). Item: COc1cccc(C2NC(=O)c3ccccc3N2)c1 (racemic)
**A:** True
